These data points were gathered from ChEMBL document CHEMBL1764959.

target: Mitogen-activated protein kinase 8 (Homo sapiens, UniProt P45983); assay: Inhibition of JNK1 by TR-FRET assay
Sequence (P45983 whole entry): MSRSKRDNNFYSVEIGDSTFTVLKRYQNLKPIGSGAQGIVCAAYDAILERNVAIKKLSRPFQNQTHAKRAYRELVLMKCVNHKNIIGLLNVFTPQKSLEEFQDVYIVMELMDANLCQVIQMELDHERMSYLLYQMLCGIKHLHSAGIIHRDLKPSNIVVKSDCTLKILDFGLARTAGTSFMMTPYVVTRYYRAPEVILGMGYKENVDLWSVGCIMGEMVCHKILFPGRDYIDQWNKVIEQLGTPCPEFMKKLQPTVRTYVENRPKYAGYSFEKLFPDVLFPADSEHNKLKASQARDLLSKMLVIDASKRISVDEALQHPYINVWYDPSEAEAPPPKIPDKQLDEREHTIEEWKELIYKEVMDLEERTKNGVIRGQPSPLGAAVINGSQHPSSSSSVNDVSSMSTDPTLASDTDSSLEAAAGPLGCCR
Please respond with label 1 when measured IC50 is strictly beneath 2 µM, and with label 0 in all other cases.

Problem: Identify whether the compound `NC(=O)c1ccccc1NC(=O)Cc1cccc2ccccc12` records IC50 below 2 µM.
Result: label 0

Problem: Take the compound `NC(=O)c1ccsc1NC(=O)Cc1cccc(Br)c1` and say whether its IC50 is less than 2 µM.
Result: label 1

Problem: Dear colleague, could you confirm whether IC50 of `Cc1csc(NC(=O)Cc2cccc3ccccc23)c1C(N)=O` falls below 2 µM? Thanks.
Result: label 0

Problem: Please indicate whether the reported IC50 of `NC(=O)c1ccsc1NC(=O)Cc1ccc(Br)cc1` is strictly below 2 µM.
Result: label 0

Problem: Report whether reported IC50 is lower than 2 µM (strictly) for `NC(=O)c1ccsc1NC(=O)Cc1cccc(I)c1`
Result: label 1

New cases:
Problem: API: query returns whether the compound falls strictly under 2 µM in IC50. Query: `NC(=O)c1ccsc1NC(=O)Cc1ccccc1`
Result: label 0

Problem: Does this compound meet the criterion IC50 < 2 µM? `NC(=O)c1ccsc1NC(=O)Cc1csc(-c2ccccc2)n1`
Result: label 0

Problem: Consider the compound `NC(=O)c1ccc(NC(=O)Cc2cccc3ccccc23)s1` . Is its IC50 strictly less than 2 µM?
Result: label 0

Problem: Please state whether IC50 is below 2 µM for `Cc1cc(C(N)=O)c(NC(=O)Cc2cccc3ccccc23)s1`
Result: label 0

Problem: API: query returns whether the compound falls strictly under 2 µM in IC50. Query: `NC(=O)c1ccsc1NC(=O)Cc1ccccc1Cl`
Result: label 1

Problem: Lab note: confirm whether the reported IC50 for this compound is below 2 µM, equality not counting. compound: `COc1cc(CC(=O)Nc2sccc2C(N)=O)cc(OC)c1`
Result: label 0

Problem: Is the reported IC50 for `NC(=O)c1ccsc1NC(=O)Cc1ccc(F)cc1` strictly below 2 µM?
Result: label 0
